Where do these numbers come from? They come from patent US20230203043A1.

compounds and their reported IC90
- System: Acinetobacter baumannii ATCC17961
- assayNotes: Antimicrobial susceptibility testing: 90% growth inhibitory concentration (IC90) determination in Iso-Sensitest broth, OD600 growth
- Type: cell-based
- studyConditions: strain ATCC 17961, OD600 growth over 16 h, read-out: A. baumannii ATCC 17961 IC90
Reply numerically in nM, unit not repeated.

// recorded IC90 for CCc1cc(Nc2nccn3c(-c4cn(CC(F)F)nc4C(F)(F)F)cnc23)ccc1C(=O)N[C@H](C)CNC(=O)OC(C)(C)C : 1330

====

- System: Acinetobacter baumannii ATCC17961
- assayNotes: Antimicrobial susceptibility testing: 90% growth inhibitory concentration (IC90) determination in Iso-Sensitest broth, OD600 growth
- Format: cell-based
- studyConditions: Acinetobacter baumannii, ATCC17961, 16 h, strain ATCC 17961, OD600 growth over 16 h, read-out: A. baumannii ATCC 17961 IC90
- Experimental: Antimicrobial Susceptibility Testing: 90% Growth Inhibitory Concentration (IC90) Determination The in vitro antimicrobial activity of the compounds was determined according to the following procedure: The assay used a 10-points Iso-Sensitest broth medium to measure quantitatively the in vitro activity of the compounds against Acinetobacter baumannii ATCC17961 or ATCC17968. […]
Structures can show the parent of a compound that is named as a salt.
compounds and their reported IC90
Reply numerically in nM, unit not repeated.

Example compounds with recorded IC90:
[
  {
    "compound": "Cc1cc(Nc2nccn3c(-c4cn(CC(F)F)nc4C(F)(F)F)cnc23)cc(F)c1C(=O)N[C@H](C)CNC(=O)[C@H]1C[C@@H](N)C1",
    "measurementUnits": "nM",
    "experimentalResult": 300
  },
  {
    "compound": "CCc1cc(Nc2nccn3c(-c4cn(CC#N)nc4C(F)(F)F)cnc23)ccc1C(=O)NCCNC(=O)[C@@H]1C[C@@H](O)CN1",
    "measurementUnits": "nM",
    "experimentalResult": 226
  },
  {
    "compound": "CCc1cc(Nc2nccn3c(-c4cn(CC#N)nc4C(F)(F)F)cnc23)ccc1C(=O)NCCCNC(=O)[C@@H]1C[C@@H](O)CN1",
    "measurementUnits": "nM",
    "experimentalResult": 671
  }
]

Item: CCc1cc(Nc2nccn3c(-c4cn(CC#N)nc4C(F)(F)F)cnc23)ccc1C(=O)NCCNC(=O)[C@H]1CC[C@H](N)C1 [Example 491, formate] | System: Acinetobacter baumannii ATCC17961 | IC90: 195

Item: C#CCNC(=O)c1c(C)cc(Nc2nccn3c(-c4cn(CCF)nc4C(F)(F)F)cnc23)cc1F | System: Acinetobacter baumannii ATCC17961 | IC90: 354

Item: Cc1cc(Nc2nccn3c(-c4cn(CC#N)nc4C(F)(F)F)cnc23)cc(F)c1C(=O)N[C@H](C)CNC(=O)[C@H]1[C@@H]2CNC[C@@H]21 | System: Acinetobacter baumannii ATCC17961 | IC90: 441

====

- Tested on: Acinetobacter baumannii ATCC17961
- assayNotes: Antimicrobial susceptibility testing: 90% growth inhibitory concentration (IC90) determination in Iso-Sensitest broth, OD600 growth
- Format: cell-based
- studyConditions: Acinetobacter baumannii, ATCC17961, 16 h, strain ATCC 17961, OD600 growth over 16 h, read-out: A. baumannii ATCC 17961 IC90
IC90 strictly under 400 nM means met; at 400 nM or over means not met.

Consider the following illustrative entries.
[
  {
    "molecule": "CCc1cc(Nc2nccn3c(-c4cn(CC(F)F)nc4C(F)F)cnc23)ccc1C(=O)NCCOCCN",
    "studySystem": "Acinetobacter baumannii ATCC17961",
    "qualitativeLabel": "met"
  },
  {
    "molecule": "CCc1cc(Nc2nccn3c(-c4c[nH]nc4C(F)(F)F)cnc23)ccc1C(=O)NCCCNC(=O)[C@H](C)NC(=O)C(F)(F)F",
    "studySystem": "Acinetobacter baumannii ATCC17961",
    "qualitativeLabel": "not met"
  },
  {
    "molecule": "O=C(NC1CNC1)c1ccc(Nc2nccn3c(-c4c[nH]nc4C(F)(F)F)cnc23)cc1Cl",
    "studySystem": "Acinetobacter baumannii ATCC17961",
    "qualitativeLabel": "not met"
  }
]

Ask | Quick check: IC90 of O=C(c1ccc(Nc2nccn3c(-c4cn(CC(F)F)nc4C(F)(F)F)cnc23)cc1Cl)N1CCN(C(=O)[C@@H]2CCCN2)CC1 under 400 nM?
Reply | met

Ask | Quick check: IC90 of C#CCn1cc(-c2cnc3c(Nc4ccc(C(=O)N[C@@H](C)CN)c(CC)c4)nccn23)c(C(F)(F)F)n1 under 400 nM?
Reply | met

====

compounds and their reported IC90
- Tested on: Acinetobacter baumannii ATCC17961
- assayNotes: Antimicrobial susceptibility testing: 90% growth inhibitory concentration (IC90) determination in Iso-Sensitest broth, OD600 growth
- Format: cell-based
- studyConditions: Acinetobacter baumannii, ATCC17961, 16 h, strain ATCC 17961, OD600 growth over 16 h, read-out: A. baumannii ATCC 17961 IC90
Where a name gives a salt, the structure may show the parent alone.
Reply numerically in nM, unit not repeated.

Example compounds with recorded IC90:
[
  {
    "compound": "O=C(NC1CCN(C(=O)c2ccc(Nc3nccn4c(-c5c[nH]nc5C(F)(F)F)cnc34)cc2Cl)CC1)C1CCNCC1",
    "studySystem": "Acinetobacter baumannii ATCC17961",
    "IC90, nM": 969
  },
  {
    "compound": "O=C(CNC(=O)c1ccc(Nc2nccn3c(-c4c[nH]nc4C(F)(F)F)cnc23)cc1Cl)N[C@H]1CCNC1",
    "studySystem": "Acinetobacter baumannii ATCC17961",
    "IC90, nM": 2230
  }
]

// recorded IC90 for CCc1cc(Nc2nccn3c(-c4cn(CC(F)F)nc4C(F)(F)F)cnc23)ccc1C(=O)N1CCC1(CN)CCl (centres unmarked) [Example 560, formate] : 836

// recorded IC90 for C#CCNCCCNC(=O)c1c(C)cc(Nc2nccn3c(-c4cn(CC#C)nc4C(F)(F)F)cnc23)cc1F : 599

====

- System: Acinetobacter baumannii ATCC17961
- assayNotes: Antimicrobial susceptibility testing: 90% growth inhibitory concentration (IC90) determination in Iso-Sensitest broth, OD600 growth
- Type: cell-based
- studyConditions: Acinetobacter baumannii, ATCC17961, 16 h, strain ATCC 17961, OD600 growth over 16 h, read-out: A. baumannii ATCC 17961 IC90
Structures can show the parent of a compound that is named as a salt.
IC90 strictly under 1000 nM means Condition met; at 1000 nM or over means Condition not met.

[
  {
    "compound": "C[C@@H](NC(=O)c1ccc(Nc2nccn3c(-c4cn(CC#N)nc4C(F)(F)F)cnc23)cc1Cl)C(=O)N[C@H]1CCNC1",
    "studySystem": "Acinetobacter baumannii ATCC17961",
    "qualitativeLabel": "Condition met"
  },
  {
    "compound": "CCc1cc(Nc2nccn3c(-c4cn(C)nc4C(F)F)cnc23)ccc1C(=O)NCCOCCN",
    "studySystem": "Acinetobacter baumannii ATCC17961",
    "qualitativeLabel": "Condition not met"
  },
  {
    "compound": "CCc1cc(Nc2nccn3c(-c4cn(CCF)nc4C(F)(F)F)cnc23)ccc1C(=O)N1CCC(CN)CC1",
    "studySystem": "Acinetobacter baumannii ATCC17961",
    "qualitativeLabel": "Condition met"
  },
  {
    "compound": "N#CCn1cc(-c2cnc3c(Nc4ccc(C(=O)NCCNCC(=O)N[C@@H]5CCNC5)c(Cl)c4)nccn23)c(C(F)(F)F)n1",
    "studySystem": "Acinetobacter baumannii ATCC17961",
    "qualitativeLabel": "Condition met"
  },
  {
    "compound": "C[C@H](N)C(=O)N1CCN(C(=O)c2ccc(Nc3nccn4c(-c5c[nH]nc5C(F)(F)F)cnc34)cc2Cl)CC1",
    "studySystem": "Acinetobacter baumannii ATCC17961",
    "qualitativeLabel": "Condition met"
  },
  {
    "compound": "N#CCn1cc(-c2cnc3c(Nc4ccc(C(=O)N5CC6(CNC6)C5)c(Cl)c4)nccn23)c(C(F)(F)F)n1",
    "studySystem": "Acinetobacter baumannii ATCC17961",
    "qualitativeLabel": "Condition met"
  },
  {
    "compound": "O=C(c1ccc(Nc2nccn3c(-c4cn(C(F)F)nc4C(F)(F)F)cnc23)cc1Cl)N1CC2(CNC2)C1",
    "studySystem": "Acinetobacter baumannii ATCC17961",
    "qualitativeLabel": "Condition met"
  },
  {
    "compound": "N#CCn1cc(-c2cnc3c(Nc4ccc(C(=O)NCC(=O)N5CCC(N)CC5)c(Cl)c4)nccn23)c(C(F)(F)F)n1 [Example 502, formate]",
    "studySystem": "Acinetobacter baumannii ATCC17961",
    "qualitativeLabel": "Condition met"
  },
  {
    "compound": "CCc1cc(Nc2nccn3c(-c4cn(CCF)nc4C(F)F)cnc23)ccc1C(=O)N1CCN(C(=O)[C@@H](C)N)CC1",
    "studySystem": "Acinetobacter baumannii ATCC17961",
    "qualitativeLabel": "Condition not met"
  },
  {
    "compound": "CCc1cc(Nc2nccn3c(-c4cn(CCF)nc4C(F)F)cnc23)ccc1C(=O)N1CCN(C(=O)CN)CC1",
    "studySystem": "Acinetobacter baumannii ATCC17961",
    "qualitativeLabel": "Condition not met"
  }
]

Ask | Quick check: IC90 of CCc1cc(Nc2nccn3c(-c4cn(CC#N)nc4C(F)F)cnc23)ccc1C(=O)N1CCN(C(=O)[C@H](N)C(C)C)CC1 under 1000 nM?
Reply | Condition not met

Ask | Quick check: IC90 of CCc1cc(Nc2nccn3c(-c4cn(CCF)nc4C(F)(F)F)cnc23)ccc1C(=O)NCCCN under 1000 nM?
Reply | Condition met

Ask | Quick check: IC90 of CCc1cc(Nc2nccn3c(-c4cn(CC(F)F)nc4C#N)cnc23)ccc1C(=O)NCCOCCN under 1000 nM?
Reply | Condition met
